Where these numbers come from: patent US20250136586A1

# system-under-test: CDK4/Cyclin D1 (Homo sapiens (Human), UniProt P11802)
# Sequence (P11802 whole entry): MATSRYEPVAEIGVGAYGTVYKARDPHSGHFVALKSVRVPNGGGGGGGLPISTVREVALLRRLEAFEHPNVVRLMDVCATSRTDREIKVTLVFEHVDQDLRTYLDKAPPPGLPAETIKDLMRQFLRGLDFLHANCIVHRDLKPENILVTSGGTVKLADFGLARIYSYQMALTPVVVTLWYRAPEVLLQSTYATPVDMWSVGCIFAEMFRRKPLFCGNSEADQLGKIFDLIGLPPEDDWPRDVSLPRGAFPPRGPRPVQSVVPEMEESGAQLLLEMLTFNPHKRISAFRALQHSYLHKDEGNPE
# Sequence (P24385 whole entry partner): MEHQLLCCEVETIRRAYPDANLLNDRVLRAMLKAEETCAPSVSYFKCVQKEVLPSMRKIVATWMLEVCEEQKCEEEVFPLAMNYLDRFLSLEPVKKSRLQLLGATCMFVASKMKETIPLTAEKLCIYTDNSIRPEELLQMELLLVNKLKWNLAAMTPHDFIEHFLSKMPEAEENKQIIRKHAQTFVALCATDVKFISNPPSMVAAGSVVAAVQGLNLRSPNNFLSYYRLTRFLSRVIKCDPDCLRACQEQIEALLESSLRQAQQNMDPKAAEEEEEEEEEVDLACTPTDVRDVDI
# procedure-text: TR-FRET kinase inhibition assay, CDK4/Cyclin D1
# condition-label: 1 mM ATP, 0.15 μM Rb (Ser780)-biotin substrate, read-out: CDK4D1 IC50
# Method: Compounds disclosed herein were tested for inhibition of CDK4/Cyclin D1 or CDK6/Cyclin D3 kinase in an assay based on the time-resolved fluorescence-resonance energy transfer (TR-FRET) methodology. […] The inhibition percentage of CDK4/Cyclin D1 or CDK6/Cyclin D3 kinase activity in presence of increasing concentrations of compounds was calculated based on the ratio of fluorescence at 665 nm to that at 620 nm. […]
outcome-measure: IC50 (nM)

Use the examples below as a reference point.
compound: Cc1c(CN2[C@H](C)COC[C@@H]2C)n(C(C)C)c2cc(-c3nc(N[C@@H]4CCOC[C@H]4O)ncc3F)ccc2c1=O
IC50 (nM): 0.8

compound: CC(C)n1c(CN2CCO[C@H](C)C2)cc(=O)c2ccc(-c3nc(N[C@@H]4CCOC[C@H]4O)ncc3F)cc21
IC50 (nM): 27

[1] CC(C)n1c(CN2CC[C@H](F)C2)cc(=O)c2ccc(-c3nc(N[C@@H]4CCOC[C@H]4O)ncc3F)cc21
[2] COc1cn(C(C)C)c2cc(-c3nc(N[C@@H]4CCOC[C@H]4O)ncc3F)ccc2c1=O
Hi there, can you help? I need to know whether 1 or 2 has lower measured IC50. Response format: the label of the selected entry. 1

[1] CC(C)n1c(CN2CCO[C@@H](C)C2)cc(=O)c2ccc(-c3nc(N[C@@H]4CCOC[C@H]4O)ncc3F)cc21
[2] CC(C)n1c(CO)cc(=O)c2ccc(-c3nc(N[C@@H]4CCOC[C@H]4O)ncc3F)cc21
Hi there, can you help? I need to know whether 1 or 2 has lower measured IC50. Response format: the label of the selected entry. 2
(2: 7.5 nM, 1: 17 nM)
